Data provenance is patent US11319337B2.

# System tested: mFXR (Mus musculus)
# Test method notes: FXR cross species activity, mFXR
# Condition description: Table 2, cross species
Measured parameter: EC50 (nM)
Just the number in nM, nothing appended.

Looking up CC[C@H]1[C@@H](O)[C@@H]2[C@H]([C@@H](O)C[C@]3(C)[C@@H]([C@H](C)CCC(=O)O)CC[C@@H]23)[C@@]2(C)CCCC[C@@H]12 , I see its EC50 listed as 600
